# test-details: Cytotoxicity against HEK293T cells assessed as growth inhibition at 50 uM by MTT assay relative to control
# Format: cell-based, HEK-293T
# condition-info: human, read-out: GI
Short version: inhibition at 50 µM at least 9% is condition met, less is condition not met.

Qu. Does the compound COc1cc(C2NC(=O)N=C3C2C(=O)N=C2SC([N+](=O)[O-])=CN23)ccc1O (configuration not stated) have recorded inhibition at 50 µM that is 9% or more?
Ans. condition not met

Qu. Assess whether reported inhibition at 50 µM for Cc1ccccc1C1NC(=O)N=C2C1C(=O)N=C1SC([N+](=O)[O-])=CN12 (configuration not stated) sits at 9% or higher.
Ans. condition met

Qu. Is reported inhibition at 50 µM greater than or equal to 9% here: O=C1N=C2SC([N+](=O)[O-])=CN2C2=NC(=S)NC(c3ccc(Cl)cc3)C12 (configuration not stated)
Ans. condition met

Qu. Quick check: does O=C1N=C2SC([N+](=O)[O-])=CN2C2=NC(=S)NC(c3ccccc3O)C12 (configuration not stated) have inhibition at 50 µM greater than or equal to 9%?
Ans. condition met

Qu. Confirm if inhibition at 50 µM reported for the compound CN(C)c1ccc(C2NC(=S)N=C3C2C(=O)N=C2SC([N+](=O)[O-])=CN23)cc1 (configuration not stated) is 9% or above.
Ans. condition met

Qu. Could you please find out whether O=C1N=C2C(C(=O)N=C3SC([N+](=O)[O-])=CN32)C(c2ccccc2C(F)(F)F)N1 (configuration not stated) has inhibition at 50 µM that meets 9% or exceeds it?
Ans. condition met

Qu. Please check the record O=C1N=C2C(C(=O)N=C3SC([N+](=O)[O-])=CN32)C(c2ccccc2[N+](=O)[O-])N1 (configuration not stated) and state if its inhibition at 50 µM is at or above 9%.
Ans. condition not met

Qu. Does inhibition at 50 µM meet or surpass 9% for O=C1N=C2C(C(=O)N=C3SC([N+](=O)[O-])=CN32)C(c2ccc([N+](=O)[O-])cc2)N1 (configuration not stated) ?
Ans. condition met

Qu. # bool: inhibition at 50 µM of O=C1N=C2C(C(=O)N=C3SC([N+](=O)[O-])=CN32)C(c2ccccc2)N1 (configuration not stated) >= 9%
Ans. condition not met

Qu. Exam item: decide whether the reported inhibition at 50 µM for Cc1ccc(C2NC(=S)N=C3C2C(=O)N=C2SC([N+](=O)[O-])=CN23)cc1 (configuration not stated) is at least 9%.
Ans. condition met

Qu. Quick check, inhibition at 50 µM >= 9%? O=C1N=C2SC([N+](=O)[O-])=CN2C2=NC(=S)NC(c3cccc(Br)c3)C12 (configuration not stated)
Ans. condition met

Qu. Quick check, inhibition at 50 µM >= 9%? O=C1N=C2C(C(=O)N=C3SC([N+](=O)[O-])=CN32)C(c2cccc(Br)c2)N1 (configuration not stated)
Ans. condition not met

Qu. Is inhibition at 50 µM for O=C1N=C2C(C(=O)N=C3SC([N+](=O)[O-])=CN32)C(c2c(Cl)cccc2Cl)N1 (configuration not stated) at or above 9%?
Ans. condition not met

Qu. Say whether O=C1N=C2SC([N+](=O)[O-])=CN2C2=NC(=S)NC(c3ccc(Br)cc3)C12 (configuration not stated) shows inhibition at 50 µM of 9% or more.
Ans. condition not met

Qu. Hi, just wondering whether COc1ccc(C2NC(=O)N=C3C2C(=O)N=C2SC([N+](=O)[O-])=CN23)cc1 (configuration not stated) shows inhibition at 50 µM of 9% or higher.
Ans. condition not met

Qu. Determine whether measured inhibition at 50 µM meets or exceeds 9% for O=C1N=C2SC([N+](=O)[O-])=CN2C2=NC(=S)NC(c3ccccc3[N+](=O)[O-])C12 (configuration not stated)
Ans. condition not met

Qu. Does the compound O=C1N=C2C(C(=O)N=C3SC([N+](=O)[O-])=CN32)C(c2ccc(F)cc2)N1 (configuration not stated) have recorded inhibition at 50 µM that is 9% or more?
Ans. condition met
